FYI, the data here is from patent US9834535B2.

Tested on: SNL model
Assay: Antiallodynic activity on Chung model (SNL, spinal nerve ligation; von Frey)
Type: in vivo, Sprague-Dawley rats
Conditions: 90 mg/kg, 0.5 h, rat, oral; read-out: SNL model: effect (%) at the concentration administered
response vs control in vivo at 90 mg/kg by entry:
MEASUREMENT KIND: response vs control in vivo at 90 mg/kg

>  <COMPOUND>
CC1(C)O[C@H](COS(N)(=O)=O)[C@@H](Cc2ccccc2Cl)O1

>  <MEASUREMENT KIND>
response vs control in vivo at 90 mg/kg

>  <RESULT>
45.8%

$$$$
>  <COMPOUND>
NS(=O)(=O)OCC[C@H]1OC2(CCCC2)O[C@@H]1Cc1ccccc1

>  <MEASUREMENT KIND>
response vs control in vivo at 90 mg/kg

>  <RESULT>
38.3%

$$$$
>  <COMPOUND>
CC1(C)O[C@@H](COS(N)(=O)=O)[C@H](c2ccccc2I)O1

>  <MEASUREMENT KIND>
response vs control in vivo at 90 mg/kg

>  <RESULT>
72.6%

$$$$
>  <COMPOUND>
CC1(C)O[C@H](CCOS(N)(=O)=O)[C@@H](Cc2ccccc2Cl)O1

>  <MEASUREMENT KIND>
response vs control in vivo at 90 mg/kg

>  <RESULT>
71.4%

$$$$
>  <COMPOUND>
Nc1ccccc1[C@@H]1OC(c2ccccc2)O[C@H]1COS(N)(=O)=O (some centres unmarked)

>  <MEASUREMENT KIND>
response vs control in vivo at 90 mg/kg

>  <RESULT>
22.9%

$$$$
